Reported OX2R agonist activity (3 μM, %) values follow for various compounds
- TESTED TARGET: human orexin type 2 receptor (Homo sapiens)
- Construct: expressed in transfected cells
- MEASUREMENT DESCRIPTION: Measurement of orexin type 2 receptor agonist activity (calcium fluorescence, CHO cells forcibly expressing human OX2 receptor)
- Format: cell-based
- CONDITIONS USED: compound at 3 μM, DMSO = 0%, orexin A (human) 10 nM = 100%
READOUT KIND: OX2R agonist activity (3 μM, %)

compound="Cc1ccc2n(c1=O)C(COC1CCC(CF)CC1)C(NS(C)(=O)=O)CC2 (racemic) [Example 86]" readout_kind="OX2R agonist activity (3 μM, %)" reported_result=89%
compound="CCS(=O)(=O)NC1CCc2ccc(C)c(=O)n2C1COC1CCC(c2ccccc2)CC1 (racemic) [Example 15]" readout_kind="OX2R agonist activity (3 μM, %)" reported_result=96%
compound="CCCOC1CCC(OCC2C(NS(C)(=O)=O)CCc3ccc(C)c(=O)n32)CC1 (stereo not drawn) [Example 107]" readout_kind="OX2R agonist activity (3 μM, %)" reported_result=65%

###

Let's look at some compounds and their measured OX2R agonist activity (3 μM, %).
- TESTED TARGET: human orexin type 2 receptor (Homo sapiens, UniProt O43614)
- Construct: expressed in transfected cells
- MEASUREMENT DESCRIPTION: Measurement of orexin type 2 receptor agonist activity (calcium fluorescence, CHO cells forcibly expressing human OX2 receptor)
- Assay type: cell-based
- CONDITIONS USED: compound at 3 μM, DMSO = 0%, orexin A (human) 10 nM = 100%
READOUT KIND: OX2R agonist activity (3 μM, %)

compound="Cc1ccc2n(c1=O)C(COC1CCC(C3CC3)CC1)C(NS(=O)(=O)C1CC1)CC2 (stereo not shown)" readout_kind="OX2R agonist activity (3 μM, %)" reported_result=87%
compound="Cc1ccc2n(c1=O)C(COC1CCC(c3ccccc3F)CC1)C(NS(=O)(=O)C1CC1)CC2 (racemic)" readout_kind="OX2R agonist activity (3 μM, %)" reported_result=95%
compound="CCOC1CCC(OCC2C(NS(C)(=O)=O)CCc3ccc(C)c(=O)n32)CC1 (stereo not shown) [Example 145]" readout_kind="OX2R agonist activity (3 μM, %)" reported_result=96%
compound="Cc1ccc2n(c1=O)C(COC1CCC(c3ccccc3)CC1)C(NS(=O)(=O)C1CC1)CC2 (racemic)" readout_kind="OX2R agonist activity (3 μM, %)" reported_result=91%
compound="COC1CCC(OCC2C(NS(C)(=O)=O)CCc3ccc(C)c(=O)n32)CC1 (racemic)" readout_kind="OX2R agonist activity (3 μM, %)" reported_result=58%
compound="Cc1ccc2n(c1=O)C(COC1CCC(C(C)(C)C)CC1)C(NS(C)(=O)=O)CC2 (racemic)" readout_kind="OX2R agonist activity (3 μM, %)" reported_result=86%
compound="CCS(=O)(=O)NC1CCc2ccc(C)c(=O)n2C1COC1CCC(C2CC2)CC1 (stereo not shown)" readout_kind="OX2R agonist activity (3 μM, %)" reported_result=94%
compound="COCCC1CCC(OCC2C(NS(C)(=O)=O)CCc3ccc(C)c(=O)n32)CC1 (racemic)" readout_kind="OX2R agonist activity (3 μM, %)" reported_result=91%
compound="CCC1CCC(OCC2C(NS(C)(=O)=O)CCc3ccc(C4CC4)c(=O)n32)CC1 (stereo not shown)" readout_kind="OX2R agonist activity (3 μM, %)" reported_result=96%
compound="CCCC1CCC(OCC2C(NS(=O)(=O)C3CC3)CCc3ccc(C)c(=O)n32)CC1 (stereo not shown)" readout_kind="OX2R agonist activity (3 μM, %)" reported_result=88%
compound="Cc1ccc2n(c1=O)C(COC1CCC(CC(C)(C)O)CC1)C(NS(C)(=O)=O)CC2 (racemic)" readout_kind="OX2R agonist activity (3 μM, %)" reported_result=59%
compound="Cc1ccc2n(c1=O)C(COC1CCC(COC(C)C)CC1)C(NS(C)(=O)=O)CC2 (racemic)" readout_kind="OX2R agonist activity (3 μM, %)" reported_result=90%
compound="CCC(O)C1CCC(OCC2C(NS(C)(=O)=O)CCc3ccc(C)c(=O)n32)CC1 (racemic)" readout_kind="OX2R agonist activity (3 μM, %)" reported_result=95%
compound="CCC1CCC(OCC2C(NS(C)(=O)=O)CCc3c(C)cc(C)c(=O)n32)CC1 (racemic)" readout_kind="OX2R agonist activity (3 μM, %)" reported_result=95%
compound="CCOC(=O)CC1CCC(OCC2C(NS(C)(=O)=O)CCc3ccc(C)c(=O)n32)CC1 (racemic)" readout_kind="OX2R agonist activity (3 μM, %)" reported_result=75%
compound="Cc1ccc2n(c1=O)C(COC1CCC(C)CC1)C(NS(=O)(=O)C1CC1)CC2 (racemic)" readout_kind="OX2R agonist activity (3 μM, %)" reported_result=80%

###

- TESTED TARGET: human orexin type 2 receptor (Homo sapiens)
- Construct: expressed in transfected cells
- Sequence (O43614 1-444): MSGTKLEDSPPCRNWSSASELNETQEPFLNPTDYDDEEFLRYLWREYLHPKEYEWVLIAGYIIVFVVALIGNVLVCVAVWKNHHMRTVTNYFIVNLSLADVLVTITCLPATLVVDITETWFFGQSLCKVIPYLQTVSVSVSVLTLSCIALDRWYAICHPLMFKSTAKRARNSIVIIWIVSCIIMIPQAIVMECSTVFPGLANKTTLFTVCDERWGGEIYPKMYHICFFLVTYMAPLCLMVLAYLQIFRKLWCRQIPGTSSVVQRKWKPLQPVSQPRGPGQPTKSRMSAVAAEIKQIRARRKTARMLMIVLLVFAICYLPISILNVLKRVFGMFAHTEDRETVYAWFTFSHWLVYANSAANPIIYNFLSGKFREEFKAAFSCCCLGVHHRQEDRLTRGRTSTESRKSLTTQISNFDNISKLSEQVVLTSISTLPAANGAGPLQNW
- MEASUREMENT DESCRIPTION: Measurement of orexin type 2 receptor agonist activity (calcium fluorescence, CHO cells forcibly expressing human OX2 receptor)
- Assay type: cell-based
- CONDITIONS USED: compound at 3 μM, DMSO = 0%, orexin A (human) 10 nM = 100%
READOUT KIND: OX2R agonist activity (3 μM, %)

compound="Cc1cccc(C2CCC(OCC3C(NS(C)(=O)=O)CCc4ccc(C)c(=O)n43)CC2)c1 (racemic)" tested_target="human orexin type 2 receptor (Homo sapiens)" unit_annotation=% reported_result=92
compound="Cc1ccc2n(c1=O)C(COC1CCC(C(F)F)CC1)C(NS(C)(=O)=O)CC2 (racemic)" tested_target="human orexin type 2 receptor (Homo sapiens)" unit_annotation=% reported_result=88
compound="Cc1ccc2n(c1=O)C(COC1CCC(CC3CC3)CC1)C(NS(C)(=O)=O)CC2 (racemic)" tested_target="human orexin type 2 receptor (Homo sapiens)" unit_annotation=% reported_result=89

###

Recorded OX2R agonist activity (3 μM, %) by entry
- TESTED TARGET: human orexin type 2 receptor (Homo sapiens, UniProt O43614)
- Construct: expressed in transfected cells
- Sequence (O43614 1-444): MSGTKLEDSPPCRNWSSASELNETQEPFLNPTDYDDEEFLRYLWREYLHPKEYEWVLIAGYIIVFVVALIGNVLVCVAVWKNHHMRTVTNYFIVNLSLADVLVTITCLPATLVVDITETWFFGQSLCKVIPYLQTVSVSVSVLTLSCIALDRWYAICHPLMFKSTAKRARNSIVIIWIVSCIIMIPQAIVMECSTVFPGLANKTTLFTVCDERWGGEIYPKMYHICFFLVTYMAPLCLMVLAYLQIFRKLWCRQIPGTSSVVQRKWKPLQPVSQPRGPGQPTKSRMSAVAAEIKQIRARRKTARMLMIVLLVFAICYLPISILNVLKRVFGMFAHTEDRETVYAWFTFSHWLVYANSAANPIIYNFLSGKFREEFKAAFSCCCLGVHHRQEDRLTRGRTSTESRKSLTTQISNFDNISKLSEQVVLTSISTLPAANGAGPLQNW
- MEASUREMENT DESCRIPTION: Measurement of orexin type 2 receptor agonist activity (calcium fluorescence, CHO cells forcibly expressing human OX2 receptor)
- Assay type: cell-based
- CONDITIONS USED: compound at 3 μM, DMSO = 0%, orexin A (human) 10 nM = 100%
READOUT KIND: OX2R agonist activity (3 μM, %)

compound="Cc1ccc(C2CCC(OCC3C(NS(=O)(=O)N(C)C)CCc4ccc(C)c(=O)n43)CC2)cc1 (racemic)" tested_target="human orexin type 2 receptor (Homo sapiens, UniProt O43614)" reported_result=88
compound="CC1CCC(OCC2C(NS(C)(=O)=O)CCc3cccc(=O)n32)CC1 (racemic)" tested_target="human orexin type 2 receptor (Homo sapiens, UniProt O43614)" reported_result=89
compound="Cc1ccc2n(c1=O)C(COC1CCC(c3ccc(F)cc3)CC1)C(NS(C)(=O)=O)CC2 (racemic)" tested_target="human orexin type 2 receptor (Homo sapiens, UniProt O43614)" reported_result=89
compound="Cc1ccccc1C1CCC(OCC2C(NS(=O)(=O)N(C)C)CCc3ccc(C)c(=O)n32)CC1 (racemic)" tested_target="human orexin type 2 receptor (Homo sapiens, UniProt O43614)" reported_result=89
